Hey, just so you know, these numbers are from patent US8778975B2.

test system: gastric acid secretion; assay: Gastric acid secretion inhibiting action, pylorus ligation in rats; format: in vivo, SD rats; details: 30 mg/kg to the duodenum, 4 hours after pylorus ligation, average
reported_endpoint: Gastric acid secretion inhibiting action: Total acidity (%)

structure_smiles_string=CCCCCCOc1ccnc(CSc2nc3ccccc3[nH]2)c1C study_target="gastric acid secretion" test_value=34
structure_smiles_string=CCCCCOc1ccnc(CSc2nc3ccccc3[nH]2)c1C study_target="gastric acid secretion" test_value=60
structure_smiles_string=CCCCCCCOc1ccnc(CSc2nc3ccccc3[nH]2)c1C study_target="gastric acid secretion" test_value=44
structure_smiles_string=CN/C(=N/CCSCc1nc[nH]c1C)NC#N study_target="gastric acid secretion" test_value=41

---

Quick reference for MIC among some molecules
system: clinically separated clarithromycin-resistant strains and amoxicillin-insensitive strains of Helicobacter pylori; assay: Antibacterial potency (MIC) against clarithromycin-resistant and amoxicillin-insensitive strains, Pharmacological Test Example 3; assay type: cell-based; settings: Helicobacter pylori, AMO-insensitive strain NO. 1; read-out: MIC
reported_endpoint: MIC (µg/mL)

structure_smiles_string=CCCCCCOc1ccnc(CSc2nc3ccccc3[nH]2)c1C reported_endpoint=MIC test_value=0.06
structure_smiles_string=CC[C@H]1OC(=O)[C@H](C)[C@@H](O[C@H]2C[C@@](C)(OC)[C@@H](O)[C@H](C)O2)[C@H](C)[C@@H](O[C@@H]2O[C@H](C)C[C@H](N(C)C)[C@H]2O)[C@](C)(OC)C[C@@H](C)C(=O)[C@H](C)[C@@H](O)[C@]1(C)O reported_endpoint=MIC test_value=0.06
structure_smiles_string=CCCCCOc1ccnc(CSc2nc3ccccc3[nH]2)c1C reported_endpoint=MIC test_value=0.06
structure_smiles_string=CCCCCCCOc1ccnc(CSc2nc3ccccc3[nH]2)c1C reported_endpoint=MIC test_value=0.12

---

Each record here notes measured MIC.
test system: clinically separated clarithromycin-resistant strains and amoxicillin-insensitive strains of Helicobacter pylori; assay: Antibacterial potency (MIC) against clarithromycin-resistant and amoxicillin-insensitive strains, Pharmacological Test Example 3; type: cell-based; conditions: Helicobacter pylori, CAM-resistant strain NO. 2; read-out: MIC
reported_endpoint: MIC (µg/mL)

structure_smiles_string=CC1(C)S[C@@H]2[C@H](NC(=O)[C@H](N)c3ccc(O)cc3)C(=O)N2[C@H]1C(=O)O reported_endpoint=MIC units_of_measure=µg/mL relation_qualifier=< test_value=0.015
structure_smiles_string=CCCCCCCOc1ccnc(CSc2nc3ccccc3[nH]2)c1C reported_endpoint=MIC units_of_measure=µg/mL relation_qualifier== test_value=0.1
structure_smiles_string=CC[C@H]1OC(=O)[C@H](C)[C@@H](O[C@H]2C[C@@](C)(OC)[C@@H](O)[C@H](C)O2)[C@H](C)[C@@H](O[C@@H]2O[C@H](C)C[C@H](N(C)C)[C@H]2O)[C@](C)(OC)C[C@@H](C)C(=O)[C@H](C)[C@@H](O)[C@]1(C)O reported_endpoint=MIC units_of_measure=µg/mL relation_qualifier== test_value=8
structure_smiles_string=CCCCCCOc1ccnc(CSc2nc3ccccc3[nH]2)c1C reported_endpoint=MIC units_of_measure=µg/mL relation_qualifier== test_value=0.06
structure_smiles_string=CCCCCOc1ccnc(CSc2nc3ccccc3[nH]2)c1C reported_endpoint=MIC units_of_measure=µg/mL relation_qualifier== test_value=0.06

---

assay: Stability test in acidic hydrochloric acid solution (pH 2), residual ratio by HPLC; format: physicochemical; details: Table 8 summary, time not stated
reported_endpoint: Stability in acid (residual ratio at pH = 2: %)

compound="CCCCCOc1ccnc(C[S+]([O-])c2nc3ccccc3[nH]2)c1C (racemic) [Reference Example 6]" units_of_measure=% test_value=0
compound=CCCCCCCOc1ccnc(CSc2nc3ccccc3[nH]2)c1C units_of_measure=% test_value=100
compound="CCCCCCOc1ccnc(C[S+]([O-])c2nc3ccccc3[nH]2)c1C (racemic) [Reference Example 7]" units_of_measure=% test_value=0
compound="COCCCOc1ccnc(C[S+]([O-])c2nc3ccccc3[nH]2)c1C (stereo not drawn)" units_of_measure=% test_value=0
compound="CCCCCCCOc1ccnc(C[S+]([O-])c2nc3ccccc3[nH]2)c1C (racemic) [Reference Example 8]" units_of_measure=% test_value=0
compound=CCCCCCOc1ccnc(CSc2nc3ccccc3[nH]2)c1C units_of_measure=% test_value=100
compound=CCCCCOc1ccnc(CSc2nc3ccccc3[nH]2)c1C units_of_measure=% test_value=100
compound="COc1ccc2[nH]c([S+]([O-])Cc3ncc(C)c(OC)c3C)nc2c1 (stereo not drawn)" units_of_measure=% test_value=0
compound="Cc1c(OCC(F)(F)F)ccnc1C[S+]([O-])c1nc2ccccc2[nH]1 (stereo not drawn)" units_of_measure=% test_value=0

---

Reported Gastric acid secretion inhibiting action: Amount of gastric acid values for a set of compounds
tested on: gastric acid secretion; experiment: Gastric acid secretion inhibiting action, pylorus ligation in rats; type: in vivo, SD rats; settings: 30 mg/kg to the duodenum, 4 hours after pylorus ligation, average
reported_endpoint: Gastric acid secretion inhibiting action: Amount of gastric acid (%)

compound="CCCCCOc1ccnc(CSc2nc3ccccc3[nH]2)c1C [Example 1]" units_of_measure=% test_value=57
compound="CCCCCCOc1ccnc(CSc2nc3ccccc3[nH]2)c1C [Example 2]" units_of_measure=% test_value=44
compound="CCCCCCCOc1ccnc(CSc2nc3ccccc3[nH]2)c1C [Example 3]" units_of_measure=% test_value=44
compound="CN/C(=N/CCSCc1nc[nH]c1C)NC#N [Cimetidine]" units_of_measure=% test_value=54

---

Reported Gastric acid secretion inhibiting action: Amount of gastric acid secretion values for a set of molecules
tested on: gastric acid secretion; test: Gastric acid secretion inhibiting action, pylorus ligation in rats; type: in vivo, SD rats; details: 30 mg/kg to the duodenum, 4 hours after pylorus ligation, average
reported_endpoint: Gastric acid secretion inhibiting action: Amount of gastric acid secretion (%)

structure_smiles_string=CCCCCCOc1ccnc(CSc2nc3ccccc3[nH]2)c1C study_target="gastric acid secretion" units_of_measure=% test_value=65
structure_smiles_string=CCCCCCCOc1ccnc(CSc2nc3ccccc3[nH]2)c1C study_target="gastric acid secretion" units_of_measure=% test_value=70
structure_smiles_string=CCCCCOc1ccnc(CSc2nc3ccccc3[nH]2)c1C study_target="gastric acid secretion" units_of_measure=% test_value=82
structure_smiles_string=CN/C(=N/CCSCc1nc[nH]c1C)NC#N study_target="gastric acid secretion" units_of_measure=% test_value=74

---

tested on: Enterococcus faecalis (VRE, ATCC 51575)
Recorded MIC for the following compounds
reported_endpoint: MIC (mg/L)

compound="CC[C@H]1OC(=O)[C@H](C)[C@@H](O[C@H]2C[C@@](C)(OC)[C@@H](O)[C@H](C)O2)[C@H](C)[C@@H](O[C@@H]2O[C@H](C)C[C@H](N(C)C)[C@H]2O)[C@](C)(OC)C[C@@H](C)C(=O)[C@H](C)[C@@H](O)[C@]1(C)O [CAM, Clarithromycin]" reported_endpoint=MIC relation_qualifier== test_value=0.1
compound="CCCCCCCOc1ccnc(CSc2nc3ccccc3[nH]2)c1C [Example 3]" reported_endpoint=MIC relation_qualifier=> test_value=100
compound="CC1(C)S[C@@H]2[C@H](NC(=O)[C@H](N)c3ccc(O)cc3)C(=O)N2[C@H]1C(=O)O [AMPC, Amoxicillin]" reported_endpoint=MIC relation_qualifier== test_value=0.3
compound="CCCCCCOc1ccnc(CSc2nc3ccccc3[nH]2)c1C [Example 2]" reported_endpoint=MIC relation_qualifier=> test_value=100
compound="CCCCCOc1ccnc(CSc2nc3ccccc3[nH]2)c1C [Example 1]" reported_endpoint=MIC relation_qualifier=> test_value=100

---

Listed here: items and their measured MIC.
tested on: Proteus vulgaris (ATCC 13315); test: Antibacterial test (MIC), Gram-negative bacteria; format: cell-based; details: ATCC13315, read-out: MIC
reported_endpoint: MIC (µg/mL)

structure_smiles_string=CC1(C)S[C@@H]2[C@H](NC(=O)[C@H](N)c3ccc(O)cc3)C(=O)N2[C@H]1C(=O)O study_target="Proteus vulgaris (ATCC 13315)" reported_endpoint=MIC relation_qualifier== test_value=6.25
structure_smiles_string=CCCCCCCOc1ccnc(CSc2nc3ccccc3[nH]2)c1C study_target="Proteus vulgaris (ATCC 13315)" reported_endpoint=MIC relation_qualifier=> test_value=100
structure_smiles_string=CC[C@H]1OC(=O)[C@H](C)[C@@H](O[C@H]2C[C@@](C)(OC)[C@@H](O)[C@H](C)O2)[C@H](C)[C@@H](O[C@@H]2O[C@H](C)C[C@H](N(C)C)[C@H]2O)[C@](C)(OC)C[C@@H](C)C(=O)[C@H](C)[C@@H](O)[C@]1(C)O study_target="Proteus vulgaris (ATCC 13315)" reported_endpoint=MIC relation_qualifier== test_value=100
structure_smiles_string=CCCCCCOc1ccnc(CSc2nc3ccccc3[nH]2)c1C study_target="Proteus vulgaris (ATCC 13315)" reported_endpoint=MIC relation_qualifier=> test_value=100
structure_smiles_string=CCCCCOc1ccnc(CSc2nc3ccccc3[nH]2)c1C study_target="Proteus vulgaris (ATCC 13315)" reported_endpoint=MIC relation_qualifier=> test_value=100
